Data provenance: PubChem BioAssay (NCATS)

Tested on: CAOV3
Assay explanation: Primary qHTS to identify gynecologic anti-cancer compounds using libraries of approved drugs and bioactive compounds (AID 1345084); further: nearly all actives have a fitted effect of over 55% in size
Condition set: Gynecologic cancer cell panel viability, ATPlite luminescence, 48 h; series mostly up to 57.5 µM
Records with an inconclusive call do not appear. Calls of active or inactive are those of the source. The call rests on the fitted dose curve; in most records, active means well fitted cell-killing curve with a large enough effect; inconclusive means small, poorly fitted or top-dose-only effect, or effect the other way; inactive means flat fitted curve, though single readings scatter.
Labels: active, inactive

Compound | Class assignment
CC(C)[C@@H]1C(=O)N(S(C)(=O)=O)[C@@H]2CCN(C(=O)/C=C/CN3CCCCC3)[C@H]21 | inactive
C=C1C[C@]23C[C@H]1CC[C@H]2[C@]1(C)CCC[C@@](C)(C(=O)O)[C@H]1[C@@H]3C(=O)O | inactive
C[C@@H]1CN(Cc2ccccc2)C[C@H]1c1nc2c(cnn2C2CCOCC2)c(=O)[nH]1 | inactive
C=CC(C)(C)c1[nH]c2ccccc2c1C[C@@H]1NC(=O)[C@H](Cc2c[nH]c3ccccc23)NC1=O | inactive
CC1(C)CC(NC(=O)C(=O)Nc2ccc(Br)cc2)CC(C)(C)N1 | inactive
COc1ccc(C(=O)Nc2ncc(-c3ccc(C(=O)O)cc3)s2)cc1 | active
OC[C@H]1O[C@@H](OC[C@H]2O[C@@H](OC/C=C/c3ccccc3)[C@H](O)[C@@H](O)[C@@H]2O)[C@@H](O)[C@@H]1O | inactive
CC1C=CC2CCCCC2C1CCC1CC(O)CC(=O)O1 (centres undefined) | inactive
C=C1C(O)CC2C(C(=O)O)=COC(O[C@@H]3O[C@H](COC(=O)/C=C/c4ccc(O)cc4)[C@@H](O)[C@H](O)[C@H]3O)C12 (some centres undefined) | inactive
